# Test system: OVCAR-8
# protocol_text: NCI tumour cell line growth inhibition, 48 h
Activity calls are given as the source filed them. Cut-off read from the data, not from the text of the source: active = GI50 up to about 1.1 µM and inactive = higher.
reported_endpoint: GI50

Example cases with answers are listed next.
> print(dat)
                                   compound  test.target       value.reported
1  N#CC1C2CCC3(CC2CCN1C(=O)c1ccccc1)OCCO3 (stereo not given)      OVCAR-8  > 100 µM (inactive)
2  CSc1ccc(Cc2cc(C(C)(C)C)cc(C(C)(C)C)c2O)cc1      OVCAR-8   16.9 µM (inactive)
3  COc1ccc2nc3cc(Cl)ccc3c(NCCCCCC(=O)NC(COc3cnc4c(ccc5cccnc54)c3)COc3cnc4c(ccc5cccnc54)c3)c2c1      OVCAR-8   31.4 µM (inactive)
4  COc1ccc(C(C#N)Cc2cc(OC)c(OC)c(OC)c2)cc1 (stereo not given)      OVCAR-8     37 µM (inactive)

Below: the item to evaluate.
Query string: Tell me GI50 reported for `N#C/C(=C\NC(=S)Nc1ccc(S(=O)(=O)Nc2ccccn2)cc1)C(N)=O`
Result string: > 100 µM (inactive)

---

# System: EKVX
# protocol_text: NCI tumour cell line growth inhibition, 48 h
Activity calls are given as the source filed them. Rule as the data show it: active = GI50 up to about 1.1 µM and inactive = higher.
Your answer must be one of the following: active, inactive

Query string: Given `COC(=O)[C@H](CCSC)NC(=O)c1ccc(CNC(=O)/C=C/c2cccc(Oc3ccccc3)c2)cc1` , state the outcome it received in this test.
Result string: inactive

Query string: Given `Cn1c(N)c(/C=N/NC(=O)CC#N)c(=O)n(C)c1=O` , state the outcome it received in this test.
Result string: inactive

Query string: Given `COc1cc([C@H]2c3cc(O)c(OC)cc3C[C@]3(O)[C@@H]2CO[C@@H]3O)ccc1O` , state the outcome it received in this test.
Result string: inactive

Query string: Given `Cc1cc(N(CCOS(C)(=O)=O)CCOS(C)(=O)=O)ccc1C=O` , state the outcome it received in this test.
Result string: inactive

Query string: Given `Cn1c(-c2cccs2)cc(-c2cccs2)c1-c1ccco1` , state the outcome it received in this test.
Result string: inactive

---

GI50 for assorted molecules
# Test system: SK-OV-3
# protocol_text: NCI tumour cell line growth inhibition, 48 h
Active and inactive are the calls of the source. No stated cut-off is given here; in the data, active = GI50 up to about 1.1 µM and inactive = higher.

Example cases with answers are listed next.
> print(dat)
                                   molecule  reported.endpoint       value.reported
1  Cc1c2cc[n+](CCN3CCCCC3)cc2c(C)c2c1[nH]c1ccc(O)cc12               GI50   3.02 µM (inactive)
2  COC(=O)/C=C/c1ccc2c(c1)[C@H](C(=O)OC)[C@@H](c1ccc(O)cc1)O2               GI50     69 µM (inactive)
3  COc1cc2c(cc1OC)[C@]1(O)C(=O)c3ccc4c(c3O[C@@H]1CO2)C[C@H](C(C)(C)O)O4               GI50  > 100 µM (inactive)

Query string: Tell me GI50 reported for C[N+]1(C)CCOC(O)(c2ccccc2)C1 (stereo not given)
Result string: > 100 µM (inactive)

Query string: Tell me GI50 reported for `O=C(NCCCCCCNC(=O)c1cc(-c2ccccc2)nc2ccccc12)c1cc(-c2ccccc2)nc2ccccc12`
Result string: > 100 µM (inactive)
